- assay remarks: Inhibition of beta-lactamase IMP-1 (unknown origin) expressed in Escherichia coli BL21(DE3) using imipenem as substrate by measuring substrate hydrolysis at 100 uM by spectrophotometric analysis
Active and inactive are the calls of the source. The calls are words filed in the database; no cut-off is given here.
quantity name: inhibition

1. S=c1[nH]nc(-c2ccccc2)n1/N=C/c1ccccc1
60%
2. COc1cc(O)ccc1/C=N/n1c(-c2ccccc2C)n[nH]c1=S
inactive
3. Oc1ccc(/C=N/n2c(-c3cc4ccccc4[nH]3)n[nH]c2=S)c(O)c1
inactive
4. Fc1cccc(-c2n[nH]c(=S)n2/N=C/c2ccc(OCc3ccccc3)cc2)c1
60%
5. O=C(O)c1ccccc1/C=N/n1c(-c2cccc(F)c2)n[nH]c1=S
inactive
6. O=C(O)c1ccccc1/C=N/n1c(-c2ccccc2-c2ccccc2)n[nH]c1=S
inactive
7. S=c1[nH]nc(-c2ccc(Cl)cc2)n1/N=C/c1ccc(OCc2ccccc2)cc1
inactive
8. O=C(O)c1ccccc1/C=N/n1c(CCc2ccccc2)n[nH]c1=S
37%
9. Cc1ccccc1-c1n[nH]c(=S)n1/N=C/c1cc(O)ccc1O
54%
10. S=c1[nH]nc(Cc2ccccc2)n1/N=C/c1ccc(OCc2ccccc2)cc1
inactive
11. Cc1ccccc1-c1n[nH]c(=S)n1/N=C/c1ccc([N+](=O)[O-])cc1
43%
12. Cc1ccccc1-c1n[nH]c(=S)n1/N=C/c1ccc(O)c(C(=O)O)c1
45%
13. O=C(O)c1ccccc1/C=N/n1c(COc2ccc3ccccc3c2)n[nH]c1=S
35%
14. O=C(O)c1ccccc1/C=N/n1c(-c2ccc3ccccc3c2O)n[nH]c1=S
inactive
15. Oc1ccc(/C=N/n2c(Cc3ccc4ccccc4c3)n[nH]c2=S)c(O)c1
64%
16. Oc1ccc(/C=N/n2c(-c3ccc(-c4ccccc4)cc3)n[nH]c2=S)c(O)c1
inactive
17. Cc1ccccc1-c1n[nH]c(=S)n1/N=C/c1ccc(O)cc1
37%
18. Cc1ccccc1-c1n[nH]c(=S)n1/N=C/c1ccccc1O
41%
19. S=c1[nH]nc(-c2cccc(Cl)c2)n1/N=C/c1ccc(OCc2ccccc2)cc1
inactive
20. Oc1ccc(/C=N/n2c(-c3ccc(OCc4ccccc4)cc3)n[nH]c2=S)c(O)c1
62%
21. Oc1ccc(/C=N/n2c(CCc3ccccc3)n[nH]c2=S)c(O)c1
45%
